Taken from patent US7087631B2.

Target: xanthine oxidase (Homo sapiens)
Sequence (P47989 whole entry, species assumed): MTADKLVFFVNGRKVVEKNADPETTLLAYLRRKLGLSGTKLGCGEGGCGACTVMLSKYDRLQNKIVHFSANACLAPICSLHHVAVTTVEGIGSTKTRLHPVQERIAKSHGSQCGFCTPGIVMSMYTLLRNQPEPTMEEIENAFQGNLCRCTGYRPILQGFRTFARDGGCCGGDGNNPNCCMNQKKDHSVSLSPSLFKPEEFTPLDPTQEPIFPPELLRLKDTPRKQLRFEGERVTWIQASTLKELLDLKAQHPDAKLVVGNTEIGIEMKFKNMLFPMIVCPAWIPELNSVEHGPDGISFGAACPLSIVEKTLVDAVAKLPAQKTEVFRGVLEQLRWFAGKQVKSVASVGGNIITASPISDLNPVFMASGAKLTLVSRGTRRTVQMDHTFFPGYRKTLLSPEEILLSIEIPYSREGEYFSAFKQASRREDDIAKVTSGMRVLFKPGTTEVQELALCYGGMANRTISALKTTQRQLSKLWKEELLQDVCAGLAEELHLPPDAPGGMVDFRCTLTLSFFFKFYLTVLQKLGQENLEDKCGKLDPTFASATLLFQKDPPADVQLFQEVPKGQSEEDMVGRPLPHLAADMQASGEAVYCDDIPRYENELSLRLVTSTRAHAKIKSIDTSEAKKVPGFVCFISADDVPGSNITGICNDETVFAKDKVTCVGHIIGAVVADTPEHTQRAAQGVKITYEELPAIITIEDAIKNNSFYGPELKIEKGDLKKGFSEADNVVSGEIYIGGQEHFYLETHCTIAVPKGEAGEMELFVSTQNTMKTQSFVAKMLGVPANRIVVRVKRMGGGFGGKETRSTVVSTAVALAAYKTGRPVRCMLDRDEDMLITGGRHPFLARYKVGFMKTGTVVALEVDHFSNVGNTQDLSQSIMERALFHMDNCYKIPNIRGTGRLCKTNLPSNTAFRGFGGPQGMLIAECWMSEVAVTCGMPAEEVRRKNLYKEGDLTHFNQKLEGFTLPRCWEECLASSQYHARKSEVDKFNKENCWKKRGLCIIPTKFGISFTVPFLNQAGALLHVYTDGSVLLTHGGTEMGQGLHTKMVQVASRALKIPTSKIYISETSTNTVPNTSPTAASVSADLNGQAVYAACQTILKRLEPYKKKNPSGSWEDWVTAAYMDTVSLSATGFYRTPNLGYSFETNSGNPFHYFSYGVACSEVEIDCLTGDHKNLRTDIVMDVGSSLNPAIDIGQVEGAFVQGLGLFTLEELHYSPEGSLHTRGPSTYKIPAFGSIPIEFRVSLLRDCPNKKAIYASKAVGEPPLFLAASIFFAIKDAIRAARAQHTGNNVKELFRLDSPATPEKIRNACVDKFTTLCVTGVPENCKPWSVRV
Test: Xanthine oxidase inhibitory activity, 96 well plate, kinetic reading at 295 nm
Format: biochemical
Details: compound concentration 100 μM
measured.metric: PERCENT XANTHINE OXIDASE INHIBITION (%)

{"columns": ["chemical.smiles", "PERCENT XANTHINE OXIDASE INHIBITION / %"],
 "data": [
  ["Fc1ccc(-c2nnn[nH]2)cc1Cl", 33],
  ["COc1ccc(-c2nnn[nH]2)cc1", 71]
]}

a: O=C(OCc1ccccc1)c1ccc(-c2nnn[nH]2)cc1
b: CC(C)(C)OC(=O)N1CCN(C(=O)c2ccc(-c3nnn[nH]3)cc2)CC1
c: c1ccc(-c2nnn[nH]2)cc1
d: Brc1ccc(-c2nnn[nH]2)cc1
Lookup: Hi! Can you put these in order of PERCENT XANTHINE OXIDASE INHIBITION, lowest number first? Would you mind listing the labels in the order asked for?
Found: c, b, d, a

A: Fc1ccc(-c2nnn[nH]2)cc1
B: Cc1ccc(-c2nnn[nH]2)cc1
C: O=C(c1ccc(-c2nnn[nH]2)cc1)N1CCNCC1
Lookup: Rank the 3 compounds: largest PERCENT XANTHINE OXIDASE INHIBITION first, smallest last. Would you mind listing the labels in the order asked for?
Found: A, B, C
